System: VchCAST RNA-guided transposition machinery (E. coli BL21(DE3) host, lacZ target)
Experiment: relative integration efficiency (T-LR orientation) vs wild-type transposon end (log2 (normalized fold change)); transposon end mutated: right end (5 bp flank + 75 bp right end); higher = more efficient transposition
readoutName: relative integration efficiency (log2)
Provide a numeric answer; units are not to be included.

As a guide, the following entries are already answered.
• ACATTTGTTGAGCCAACCATAAAATGATAATTACACCCATAAATTGATAATTATCACACCCATAAATTGATATTGCCTCTGATCATAGTCAGACCAACATTGCTACGACCCGTATTCGCACCGACAC = -0.934
• ACATTTGTGGATACAACCATAAAATGATAATTACACCCATAAATGGATCATTATCACACCCAATTTAACTATAACGCTCTGATCATAGTCAGACCAACATTGCTACGACCCGTATTCGCACCGACAC = 1.01
• ACATTTGTTGATACAACCATAAAATGATAATTACAACCATAAGTTGATATTTTTCACAACCATAAGTTGATATTTTCTCTGATCATAGTCAGACCAACATTGCTACGACCCGTATTCGCACCGACAC = -0.201
• ACATTTGTTGATACAACCATAAAATGATAATTACACCCATAAATTGCGAATTATCACACCCATAAATTGATATTGCCTCTGATCATAGTCAGACCAACATTGCTACGACCCGTATTCGCACCGACAC = -0.682

Now for a further sequence.
Item: "ACATTTGTTCATACAACCCTAAAATGATAATTACACCCATAAATTCATCATTATCACACCCAATTTAACTATAACGCTCTGATCATAGTCAGACCAACATTGCTACGACCCGTATTCGCACCGACAC" | relative integration efficiency (log2): -3.3

====

System: VchCAST RNA-guided transposition machinery (E. coli BL21(DE3) host, lacZ target)
Assay: relative integration efficiency (T-RL orientation) vs wild-type transposon end (log2 (normalized fold change)); transposon end mutated: right end (5 bp flank + 75 bp right end); higher = more efficient transposition
Each entry below carries its reported relative integration efficiency (log2).
Provide a numeric answer; units are not to be included.

As a guide, the following entries are already answered.
* ACATTTGTTGATACAACCATAAAATGATAATTACACCCATAAATTGATAATTATCACACCCATAAATTGATATTGCTTATGATCATAGTCAGACCAACATTGCTACGACCCGTATTCGCACCGACAC | 0.0482
* ACATTTCTGGATACAACCATAAAATGATAATTACACCCATAAATTCATCATTATCACACCCAATTTAACTATAACGCTCTGATCATAGTCAGACCAACATTGCTACGACCCGTATTCGCACCGACAC | -3.59
* ACATTTGTTGATCACCCCATAAAATGATAATTACACCCATAAATTGATAATTATCACACCCATAAATTGATATTGCCTCTGATCATAGTCAGACCAACATTGCTACGACCCGTATTCGCACCGACAC | -0.839
* ACATTGGTCGATACAACCATAAAATGATAATTACACCCATAAATTGATCATTATCACACCCAATTTAACTATAACGCTCTGATCATAGTCAGACCAACATTGCTACGACCCGTATTCGCACCGACAC | -7.02
* ACATTTGTTGATACACCCATAAATTGATATTGCCAACCATAAAATGATAATTATCACAACCATATATTGATATCTCCTCTGATCATAGTCAGACCAACATTGCTACGACCCGTATTCGCACCGACAC | -0.961
* ACATTTGTTGATACAACCATAAAATGATAATTAATAATTATTTATAATCAGCAACTCACCCATAAATTGATAATTATCAACAAACGCCCGGTCGCGGTACTCTGATCATAGTCAGACCAACATTGCT | -2.25
* ACATTTGTTGATACAACCATAAGTTGATATTTTCAACCATATATTGATATCTCTCACACCCATAAATTGATAATTACTCTGATCATAGTCAGACCAACATTGCTACGACCCGTATTCGCACCGACAC | -0.464
* ACATTTGTTGATACAACCATAAAATGAGAATTACACCCATAAATTGAGAATTATCACACCCATAAATTGAGATTGCCTCTGATCATAGTCAGACCAACATTGCTACGACCCGTATTCGCACCGACAC | -1.04
* ACATTTGTTGATACACCCATAAATTGATATTGCCAACCATAAAATGATAATTATCAGTGGGTATTTAACTATAACGCTCTGATCATAGTCAGACCAACATTGCTACGACCCGTATTCGCACCGACAC | -1.21

Now for a further sequence.
// sequence "ACATTTGTTGATACAACCATAAAATGATAATTACACCCAGCAATTGATAATTATCACACCCATAAATTGATATTGCCTCTGATCATAGTCAGACCAACATTGCTACGACCCGTATTCGCACCGACAC" , assay VchCAST RNA-guided transposition machinery (E. coli BL21(DE3) host, lacZ target), relative integration efficiency (log2) value: -2.18
